- Tested target: human adenosine A2BR (Homo sapiens, UniProt P29275)
- Construct: expressed in transfected cells; host or cells: CHO cells
- Sequence (P29275 whole entry): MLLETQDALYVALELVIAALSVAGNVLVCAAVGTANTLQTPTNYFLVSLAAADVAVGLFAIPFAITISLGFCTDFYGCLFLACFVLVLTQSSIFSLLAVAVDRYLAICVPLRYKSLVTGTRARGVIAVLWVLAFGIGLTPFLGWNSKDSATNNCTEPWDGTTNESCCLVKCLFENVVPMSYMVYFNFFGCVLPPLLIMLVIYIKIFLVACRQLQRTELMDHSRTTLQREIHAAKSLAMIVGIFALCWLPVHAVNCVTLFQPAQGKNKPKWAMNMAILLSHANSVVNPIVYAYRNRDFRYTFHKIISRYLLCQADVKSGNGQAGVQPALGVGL
- Protocol notes: Radioligand binding at human adenosine A2B receptor vs. [3H]PSB-603
- Applied conditions: human recombinant receptor in CHO cells; read-out: A2BR vs. [³H]PSB-603 Ki ± SEM
- Experimental: Affinities for adenosine receptors were evaluated in radioligand binding assays as previously described. Human adenosine receptors were stably expressed in CHO cells. […] Data were analyzed using GraphPad PRISM version 5.0 or higher (Graph Pad, San Diego, CA, USA). Ki were calculated using the Cheng–Prusoff equation.
Property label: Ki

Case CCCCn1c(=O)c2c(nc(NCc3ccccc3Cl)n2C)n(C)c1=O , human adenosine A2BR (Homo sapiens, UniProt P29275), Ki recorded as > 1000 nM

For C#CCn1c(=O)c2c(nc(NCc3ccccc3Cl)n2C)n(C)c1=O on human adenosine A2BR (Homo sapiens, UniProt P29275), measured Ki was > 1000 nM

The molecule CCCn1c(=O)c2c(nc(NCc3cccc(Br)c3)n2C)n(C)c1=O , tested on human adenosine A2BR (Homo sapiens, UniProt P29275), showed Ki of > 1000 nM

Observed Ki on human adenosine A2BR (Homo sapiens, UniProt P29275), entry C#CCn1c(=O)c2c(nc(NCc3c(F)cccc3Cl)n2C)n(C2CC2)c1=O , equals > 1000 nM

Noted Ki for CCCn1c(=O)c2c(nc(NCc3cccc(OC)c3)n2C)n(C)c1=O , tested on human adenosine A2BR (Homo sapiens, UniProt P29275): > 1000 nM

Per the reported human adenosine A2BR (Homo sapiens, UniProt P29275) data, C#CCn1c(=O)c2c(nc(NCc3cccc(Cl)c3)n2C)n(C)c1=O has Ki of > 1000 nM

human adenosine A2BR (Homo sapiens, UniProt P29275) assay, molecule CCCCCCn1c(=O)c2c(nc(NCc3ccccc3Cl)n2C)n(C)c1=O , recorded Ki = > 1000 nM

###

- Tested target: human adenosine A3R (Homo sapiens, UniProt P0DMS8)
- Construct: expressed in transfected cells; host or cells: CHO cells
- Sequence (P0DMS8 whole entry): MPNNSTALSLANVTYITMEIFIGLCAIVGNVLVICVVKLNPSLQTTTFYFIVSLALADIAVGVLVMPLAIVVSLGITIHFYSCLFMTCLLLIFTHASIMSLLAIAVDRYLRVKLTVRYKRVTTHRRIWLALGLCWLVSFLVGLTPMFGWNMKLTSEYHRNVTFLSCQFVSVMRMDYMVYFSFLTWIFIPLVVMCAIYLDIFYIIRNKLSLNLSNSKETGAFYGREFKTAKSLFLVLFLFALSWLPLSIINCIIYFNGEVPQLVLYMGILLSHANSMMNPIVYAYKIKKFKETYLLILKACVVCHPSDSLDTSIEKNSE
- Protocol notes: Radioligand binding at human adenosine A3 receptor vs. [3H]PSB-11
- Applied conditions: 1 µM; CHO cells; read-out: A3R vs. [H³]PSB-11 % Inhibition ± SEM at 1 µM
- Protocol: Affinities for adenosine receptors were evaluated in radioligand binding assays as previously described. Human adenosine receptors were stably expressed in CHO cells. […] Data were analyzed using GraphPad PRISM version 5.0 or higher (Graph Pad, San Diego, CA, USA). Ki were calculated using the Cheng–Prusoff equation.
Task for the reader: assign each of the following compounds its reported inhibition at 1 µM.
Give your result in % as a bare value.

CCCn1c(=O)c2c(nc(NCc3c(F)cccc3Cl)n2C)n(C)c1=O has a reported inhibition at 1 µM of 18

Item: Cn1c(NCc2ccccc2Cl)nc2c1c(=O)n(Cc1ccccc1)c(=O)n2C | inhibition at 1 µM: 24

inhibition at 1 µM for C#CCn1c(=O)c2c(nc(NCc3cccc(Cl)c3)n2C)n(C)c1=O is 14

The recorded inhibition at 1 µM for CCCn1c(=O)c2c(nc(NCc3cccc(OC)c3)n2C)n(C)c1=O is 6

What the record says about C#CCn1c(=O)c2c(nc(NCc3cccc(OC)c3)n2C)n(C)c1=O : inhibition at 1 µM is 0

CCCCCCn1c(=O)c2c(nc(NCc3ccccc3Cl)n2C)n(C)c1=O has a reported inhibition at 1 µM of 31

Record CCCn1c(=O)c2c(nc(NCc3cccc(Cl)c3)n2C)n(C)c1=O , field inhibition at 1 µM: 0

Where these numbers come from: paper PMC10531311
